Every entry's value here was drawn from patent EP4656642A1.

- assayed target: ERα (Homo sapiens, UniProt P03372)
- Sequence (P03372 1-595): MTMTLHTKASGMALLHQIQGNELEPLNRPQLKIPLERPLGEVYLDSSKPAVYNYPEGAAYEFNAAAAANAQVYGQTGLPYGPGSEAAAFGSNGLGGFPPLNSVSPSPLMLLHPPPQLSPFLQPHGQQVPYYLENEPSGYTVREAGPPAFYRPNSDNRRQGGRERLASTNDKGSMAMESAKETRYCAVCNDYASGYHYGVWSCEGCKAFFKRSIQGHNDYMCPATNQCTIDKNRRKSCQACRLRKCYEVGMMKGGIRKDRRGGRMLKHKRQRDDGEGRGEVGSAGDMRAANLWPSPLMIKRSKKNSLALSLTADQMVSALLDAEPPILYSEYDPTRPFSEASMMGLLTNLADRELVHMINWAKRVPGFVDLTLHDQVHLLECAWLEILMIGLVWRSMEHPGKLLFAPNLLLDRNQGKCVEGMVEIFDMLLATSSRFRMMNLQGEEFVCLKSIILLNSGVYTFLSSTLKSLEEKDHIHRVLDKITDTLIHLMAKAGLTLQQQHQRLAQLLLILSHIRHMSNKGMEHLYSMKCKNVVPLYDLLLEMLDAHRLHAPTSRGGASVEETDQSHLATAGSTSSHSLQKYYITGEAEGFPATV
- experiment summary: Degradation of ERα in MCF-7 cells (immunoblotting, 4 h)
- Type: cell-based
- run conditions: 1nM compound
Reported Degradation rate (%) of ERα in MCF-7 cells by item:
experimental endpoint: Degradation rate (%) of ERα in MCF-7 cells

[[record]]
molecule = "CC1CN(C2CC3(CCN(c4ccc([C@@H]5c6ccc(O)cc6CC[C@@H]5c5ccccc5)cc4)CC3)C2)CCC1N1CCC2(CC1)COc1c2ccc2c1CN(C1CCC(=O)NC1=O)C2=O (stereo partly drawn) [K20]"
unit_annotation = "%"
result_value = 37

[[record]]
molecule = "O=C1CCC(N2Cc3c(ccc4c3OCC43CCN(C(=O)C4CCN(CC5CCN(c6ccc([C@@H]7c8ccc(O)cc8CC[C@@H]7c7ccccc7)cc6)CC5)CC4)CC3)C2=O)C(=O)N1 (stereo partly drawn) [K34]"
unit_annotation = "%"
result_value = 75

[[record]]
molecule = "O=C1CCC(N2Cc3c(ccc4c3OCC43CCN(C4CC5(CCN(c6ccc([C@@H]7c8ccc(O)cc8CC[C@@H]7c7ccccc7)cc6)CC5)C4)CC3)C2=O)C(=O)N1 (stereo partly drawn) [L16]"
unit_annotation = "%"
result_value = 29


###

- assayed target: ERα (Homo sapiens)
- experiment summary: Degradation of ERα in T-47D cells (immunoblotting, 4 h)
- Assay type: cell-based
- Parameters: host or cells: T-47D
- run conditions: 1nM compound
Define the label as satisfied when Degradation rate (%) of ERα in T-47D cells is strictly less than 50% and as not satisfied in all remaining cases.

[[record]]
molecule = "O=C1CCC(N2Cc3c(ccc4c3OCC43CCN(CC(=O)N4CCC5(CCN(c6ccc([C@@H]7c8ccc(O)cc8CC[C@@H]7c7ccccc7)cc6)C5)C4)CC3)C2=O)C(=O)N1 (some centres unmarked) [H19]"
assigned_category = "satisfied"

[[record]]
molecule = "O=C1CCC(N2Cc3c(ccc4c3OCC43CCN(CC4CN(C(=O)C5CCN(c6ccc([C@@H]7c8ccc(O)cc8CC[C@@H]7c7ccccc7)cc6)CC5)C4)CC3)C2=O)C(=O)N1 (some centres unmarked) [D5]"
assigned_category = "not satisfied"

[[record]]
molecule = "O=C1CCC(N2Cc3c(ccc4c3OCC43CCN(C4CC5(CCN(c6ccc([C@@H]7c8ccc(O)cc8CC[C@@H]7c7ccccc7)cc6)CC5)C4)CC3)C2=O)C(=O)N1 (some centres unmarked) [L16]"
assigned_category = "satisfied"

[[record]]
molecule = "O=C1CCC(N2Cc3c(ccc4c3OCC43CCN(C(=O)CN4CCC5(CC4)CCN(c4ccc([C@@H]6c7ccc(O)cc7CC[C@@H]6c6ccccc6)cc4)CC5)CC3)C2=O)C(=O)N1 (some centres unmarked) [A62]"
assigned_category = "not satisfied"


###

- assayed target: ERα (Homo sapiens, UniProt P03372)
- Sequence (P03372 1-595): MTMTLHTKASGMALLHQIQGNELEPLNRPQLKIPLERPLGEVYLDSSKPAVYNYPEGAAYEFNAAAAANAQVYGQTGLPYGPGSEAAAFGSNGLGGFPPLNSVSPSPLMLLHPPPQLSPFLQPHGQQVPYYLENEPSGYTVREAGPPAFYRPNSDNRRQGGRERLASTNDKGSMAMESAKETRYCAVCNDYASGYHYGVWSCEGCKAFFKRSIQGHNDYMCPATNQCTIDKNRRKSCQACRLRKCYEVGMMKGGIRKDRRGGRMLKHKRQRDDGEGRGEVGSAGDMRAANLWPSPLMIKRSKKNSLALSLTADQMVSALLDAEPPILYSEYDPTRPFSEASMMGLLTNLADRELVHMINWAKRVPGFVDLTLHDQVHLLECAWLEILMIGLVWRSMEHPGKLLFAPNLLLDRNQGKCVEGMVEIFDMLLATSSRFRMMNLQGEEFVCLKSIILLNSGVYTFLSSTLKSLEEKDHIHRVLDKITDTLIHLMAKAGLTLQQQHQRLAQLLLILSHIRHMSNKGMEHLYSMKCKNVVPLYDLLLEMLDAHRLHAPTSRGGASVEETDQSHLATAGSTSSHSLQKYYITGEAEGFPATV
- experiment summary: Degradation of ERα in MCF-7 cells (immunoblotting, 4 h)
- Type: cell-based
- run conditions: 1nM compound
In this section we review reported Degradation rate (%) of ERα in MCF-7 cells values for a set of compounds.
experimental endpoint: Degradation rate (%) of ERα in MCF-7 cells

[[record]]
compound = "O=C1CCC(N2Cc3ccc4c(c3C2=O)OCC42CCN(C(=O)CN3CCC4(CCN(c5ccc([C@@H]6c7ccc(O)cc7CC[C@@H]6c6ccccc6)cc5)CC4)C3)CC2)C(=O)N1 (some centres unmarked)"
assayed_target = "ERα (Homo sapiens, UniProt P03372)"
result_value = 36

[[record]]
compound = "O=C1CCC(N2Cc3cc4c(cc3C2=O)OC2(CC4)CN(C3CCC4(CC3)CCN(C3CCN(c5ccc([C@@H]6c7ccc(O)cc7CC[C@@H]6c6ccccc6)cc5)CC3)CC4)C2)C(=O)N1 (some centres unmarked)"
assayed_target = "ERα (Homo sapiens, UniProt P03372)"
result_value = -3

[[record]]
compound = "O=C1CCC(N2Cc3cc4c(cc3C2=O)OC2(CC4)CN(C3CC4(CCC5(CC4)CN(c4ccc([C@@H]6c7ccc(O)cc7CC[C@@H]6c6ccccc6)cc4)C5)C3)C2)C(=O)N1 (some centres unmarked)"
assayed_target = "ERα (Homo sapiens, UniProt P03372)"
result_value = -9

[[record]]
compound = "CCOC(=O)[C@H]1CC(N2CCC3(CC2)COc2c3ccc3c2CN(C2CCC(=O)NC2=O)C3=O)CCN1C1CC2(CCN(c3ccc([C@@H]4c5ccc(O)cc5CC[C@@H]4c4ccccc4)cc3)CC2)C1 (some centres unmarked)"
assayed_target = "ERα (Homo sapiens, UniProt P03372)"
result_value = 4

[[record]]
compound = "O=C1CCC(N2Cc3cc4c(cc3C2=O)OC2(CC4)CCN(C3CC4(CCN(c5ccc([C@@H]6c7ccc(O)cc7CC[C@@H]6c6ccccc6)cc5)CC4)C3)CC2)C(=O)N1 (some centres unmarked)"
assayed_target = "ERα (Homo sapiens, UniProt P03372)"
result_value = -9


###

- Test system: T-47D cells
- experiment summary: Inhibition of cell proliferation in T-47D cells (CCK-8, 6 days)
- Assay type: cell-based
- run conditions: 6 days of treatment, Table 3
pIC50: −log10 of the molar value.
The entries below are paired with their reported pIC50.
experimental endpoint: pIC50

[[record]]
molecule = "O=C1CCC(N2Cc3ccc4c(c3C2=O)OCC42CCN(C3CCC4(CC3)CN(c3ccc([C@@H]5c6ccc(O)cc6CC[C@@H]5c5ccccc5)cc3)C4)CC2)C(=O)N1 (stereo partly drawn)"
result_value = 8.10

[[record]]
molecule = "O=C1CCC(N2C(=O)c3ccc4c(c3C2=O)OCC42CCN(C3CCN(C(=O)C4CCN(c5ccc([C@@H]6c7ccc(O)cc7CC[C@@H]6c6ccccc6)cc5)CC4)CC3)CC2)C(=O)N1 (stereo partly drawn)"
result_value = 8.33

[[record]]
molecule = "O=C1CCC(N2C(=O)c3ccc4c(c3C2=O)OC2(CC4)CCN(C3CCC4(CC3)CN(c3ccc([C@@H]5c6ccc(O)cc6CC[C@@H]5c5ccccc5)cc3)C4)CC2)C(=O)N1 (stereo partly drawn)"
result_value = 7.87


###

- assayed target: ERα (Homo sapiens, UniProt P03372)
- Sequence (P03372 1-595): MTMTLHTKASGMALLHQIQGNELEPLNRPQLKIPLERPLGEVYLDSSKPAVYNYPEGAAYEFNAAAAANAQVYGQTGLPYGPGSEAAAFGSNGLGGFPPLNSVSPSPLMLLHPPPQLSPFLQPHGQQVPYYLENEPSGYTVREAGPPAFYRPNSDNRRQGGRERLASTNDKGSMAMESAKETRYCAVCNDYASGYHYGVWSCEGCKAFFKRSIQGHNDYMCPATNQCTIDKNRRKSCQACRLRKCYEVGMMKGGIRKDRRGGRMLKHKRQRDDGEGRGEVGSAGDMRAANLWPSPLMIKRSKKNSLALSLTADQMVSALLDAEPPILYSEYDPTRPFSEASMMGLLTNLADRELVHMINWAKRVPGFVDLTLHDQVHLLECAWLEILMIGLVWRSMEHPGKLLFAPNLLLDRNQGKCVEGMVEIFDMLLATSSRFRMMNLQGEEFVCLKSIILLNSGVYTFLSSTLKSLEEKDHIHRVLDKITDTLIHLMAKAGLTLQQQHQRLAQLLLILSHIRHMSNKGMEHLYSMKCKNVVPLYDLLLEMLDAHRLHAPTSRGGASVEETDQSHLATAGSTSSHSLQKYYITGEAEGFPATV
- experiment summary: Degradation of ERα in MCF-7 cells (immunoblotting, 4 h)
- Format: cell-based
- run conditions: 1nM compound
experimental endpoint: Degradation rate (%) of ERα in MCF-7 cells

[[record]]
compound = "O=C1CCC(N2Cc3c(ccc4c3OCC43CCN([C@H]4CCN(C5CC6(CCN(c7ccc([C@@H]8c9ccc(O)cc9CC[C@@H]8c8ccccc8)cc7)CC6)C5)C[C@H]4F)CC3)C2=O)C(=O)N1 (some centres unmarked)"
result_value = 24

[[record]]
compound = "N#CC1(C(=O)N2CCC(N3CCC4(CC3)COc3c4ccc4c3CN(C3CCC(=O)NC3=O)C4=O)CC2)CCN(c2ccc([C@@H]3c4ccc(O)cc4CC[C@@H]3c3ccccc3)cc2)CC1 (some centres unmarked)"
result_value = 46

[[record]]
compound = "CCN(CC(=O)N1CCC2(CC1)COc1c2ccc2c1CN(C1CCC(=O)NC1=O)C2=O)CC1CCN(c2ccc([C@@H]3c4ccc(O)cc4CC[C@@H]3c3ccccc3)cc2)CC1 (some centres unmarked)"
result_value = 60

[[record]]
compound = "CC1(C(=O)N2CCC(N3CCC4(CC3)COc3c4ccc4c3CN(C3CCC(=O)NC3=O)C4=O)CC2)CCN(c2ccc([C@@H]3c4ccc(O)cc4CC[C@@H]3c3ccccc3)cc2)CC1 (some centres unmarked)"
result_value = 54

[[record]]
compound = "CN(CC(=O)N1CCC2(CC1)COc1c2ccc2c1CN(C1CCC(=O)NC1=O)C2=O)CC1CCN(c2ccc([C@@H]3c4ccc(O)cc4CC[C@@H]3c3ccccc3)cc2)CC1 (some centres unmarked)"
result_value = 50

[[record]]
compound = "O=C1CCC(N2Cc3cc4c(cc3C2=O)CCC2(CN(C3CCC5(CC3)CN(c3ccc([C@@H]6c7ccc(O)cc7CC[C@@H]6c6ccccc6)cc3)C5)C2)O4)C(=O)N1 (some centres unmarked)"
result_value = 3

[[record]]
compound = "CN(C[C@H]1CC[C@H](C(=O)N2CCC3(CC2)COc2c3ccc3c2CN(C2CCC(=O)NC2=O)C3=O)CC1)[C@@H]1CCN(c2ccc([C@@H]3c4ccc(O)cc4CC[C@@H]3c3ccccc3)cc2)C[C@@H]1F (some centres unmarked)"
result_value = 39

[[record]]
compound = "O=C1CCC(N2Cc3c(ccc4c3OCC43CCN(C4CC5(CCC6(CCN(c7ccc([C@@H]8c9ccc(O)cc9CC[C@@H]8c8ccccc8)cc7)CC6)CC5)C4)CC3)C2=O)C(=O)N1 (some centres unmarked)"
result_value = 17

[[record]]
compound = "O=C1CCC(N2Cc3c(ccc4c3OCC43CCN(C4CCN(S(=O)(=O)C5CCN(c6ccc([C@@H]7c8ccc(O)cc8CC[C@@H]7c7ccccc7)cc6)CC5)CC4)CC3)C2=O)C(=O)N1 (some centres unmarked)"
result_value = 40

[[record]]
compound = "O=C1CCC(N2Cc3cc4c(cc3C2=O)CCC2(CN(CC3CC5(CCN(c6ccc([C@@H]7c8ccc(O)cc8CC[C@@H]7c7ccccc7)cc6)CC5)C3)C2)O4)C(=O)N1 (some centres unmarked)"
result_value = -8

[[record]]
compound = "CCN(C(=O)CN1CCC2(CC1)COc1c2ccc2c1CN(C1CCC(=O)NC1=O)C2=O)C1CC2(CCN(c3ccc([C@@H]4c5ccc(O)cc5CC[C@@H]4c4ccccc4)cc3)CC2)C1 (some centres unmarked)"
result_value = 28

